The reported numbers originate from paper PMC12040169.

- ASSAY REMARKS: in vitro
- REPORTED CONDITIONS: human, hela cells, % viability
READOUT LABEL: viability at 28.5 h, 10 µM (%)
# output: bare number, implied unit %

INSERT INTO assay_data (molecule, readout_label, scale_unit, reading) VALUES
  ('Cc1cc2c(N3CCCC(NS(C)(=O)=O)C3)nccc2o1 (stereo not shown) [CBK306464]', 'viability at 28.5 h, 10 µM', '%', 93.4),
  ('O=C(CSc1ncccn1)N/N=C/c1ccncc1 [CBK262401]', 'viability at 28.5 h, 10 µM', '%', 103);

### Prompt Look up viability at 28.5 h, 10 µM for this molecule: O=C(Nc1ccc(O)cc1C(=O)O)c1ccc2c(c1)C(=O)N(Cc1ccco1)C2=O [CBK267418]
### Response 103

### Prompt Again, but for CCn1c(=O)n(CCC(=O)NC(C(N)=O)c2ccccc2)c2ccccc21 (stereo not shown) [CBK295196]
### Response 89.7

### Prompt Again, but for Fc1ccc(CN2CCC(n3cnc4cccnc43)CC2)cc1 [CBK283580]
### Response 98.2

### Prompt Again, but for CNC(=O)CSc1nc2cc(Cl)ccc2c(=O)n1CC1CCCO1 (stereo not shown) [CBK305937]
### Response 86.9

### Prompt Again, but for COc1ccc(NC(=O)C(C)Sc2nc(N)cc(O)n2)cc1 (stereo not shown) [CBK265699]
### Response 106
